- measured target: Ataxin-2 (Homo sapiens) (UniProt Q99700)
- Sequence (Q99700 whole entry): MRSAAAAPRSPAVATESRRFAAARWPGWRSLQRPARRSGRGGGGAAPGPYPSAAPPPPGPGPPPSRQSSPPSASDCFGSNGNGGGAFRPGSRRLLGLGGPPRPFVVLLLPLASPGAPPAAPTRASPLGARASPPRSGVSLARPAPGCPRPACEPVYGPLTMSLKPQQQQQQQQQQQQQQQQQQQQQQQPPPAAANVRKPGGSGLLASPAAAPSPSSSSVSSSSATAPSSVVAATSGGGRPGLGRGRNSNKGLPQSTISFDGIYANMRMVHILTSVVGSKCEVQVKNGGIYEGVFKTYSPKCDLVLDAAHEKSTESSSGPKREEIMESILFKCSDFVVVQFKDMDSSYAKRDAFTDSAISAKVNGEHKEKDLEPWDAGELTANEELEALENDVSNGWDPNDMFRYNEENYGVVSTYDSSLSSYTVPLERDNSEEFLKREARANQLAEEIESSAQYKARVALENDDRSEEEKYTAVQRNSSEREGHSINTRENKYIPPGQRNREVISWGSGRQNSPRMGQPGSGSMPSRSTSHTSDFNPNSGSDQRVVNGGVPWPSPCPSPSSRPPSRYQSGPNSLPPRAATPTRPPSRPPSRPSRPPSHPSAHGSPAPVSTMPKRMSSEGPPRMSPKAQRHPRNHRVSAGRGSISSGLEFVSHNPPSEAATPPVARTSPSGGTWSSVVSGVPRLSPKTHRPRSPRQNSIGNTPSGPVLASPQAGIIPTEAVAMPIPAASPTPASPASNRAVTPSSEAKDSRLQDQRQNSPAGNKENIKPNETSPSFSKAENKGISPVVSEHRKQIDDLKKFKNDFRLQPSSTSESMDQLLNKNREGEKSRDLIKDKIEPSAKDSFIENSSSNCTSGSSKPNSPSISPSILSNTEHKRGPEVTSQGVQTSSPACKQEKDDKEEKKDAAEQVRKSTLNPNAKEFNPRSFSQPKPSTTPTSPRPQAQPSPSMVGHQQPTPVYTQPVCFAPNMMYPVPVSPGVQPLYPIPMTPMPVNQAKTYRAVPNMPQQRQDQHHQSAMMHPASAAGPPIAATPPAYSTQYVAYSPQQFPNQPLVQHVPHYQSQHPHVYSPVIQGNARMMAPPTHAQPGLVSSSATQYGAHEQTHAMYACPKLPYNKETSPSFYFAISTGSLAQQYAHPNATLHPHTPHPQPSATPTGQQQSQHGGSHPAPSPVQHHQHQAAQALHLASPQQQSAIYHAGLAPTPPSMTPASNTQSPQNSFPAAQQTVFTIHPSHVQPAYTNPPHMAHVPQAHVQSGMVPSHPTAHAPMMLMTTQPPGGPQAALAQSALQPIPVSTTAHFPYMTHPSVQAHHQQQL
- assay notes: qHTS for Inhibitors of ATXN expression.
- Type: functional
Out of some 400,000 compounds screened, about 2,100 (0.53%) were called active. Inconclusive results (about 14%) are left out. Many of the other results were omitted from the sample, so actives are more common in it than they were.
observable: Potency

See these solved cases before continuing.
1) Cc1cc(C)cc(OCC(O)CN2CCC(CN3C(=O)c4cccc5cccc(c45)C3=O)CC2)c1 (stereo not given) = 28.2 µM (active)
2) O=C(CN1C(=O)c2cccc3cccc1c23)NC1CCCCC1 = inactive
3) Cc1cccc(C)c1OCC(O)CN1CCC(CN2C(=O)c3cccc4cccc(c34)C2=O)CC1 (stereo not given) = 25.1 µM (active)
4) Cc1ccc(C)c(OCC(O)CN2CCC(CN3C(=O)c4cccc5cccc(c45)C3=O)CC2)c1 (stereo not given) = 39.8 µM (active)
5) O=C(CN1C(=O)c2cccc3cccc1c23)NC1CCCC1 = inactive
6) CCOC(=O)N1CCN(CC(O)COc2cc(C)cc(C)c2)CC1 (stereo not given) = inactive

Data point: O=c1[nH]c(=O)c2nc3c4ccccc4c4ccccc4c3nc2[nH]1 ; Potency = inactive

Data point: CCOC(=O)C1CCN(S(=O)(=O)c2ccc3c4c(cccc24)C(=O)N3CC)CC1 ; Potency = inactive

Data point: CCC(C)NC(=O)CN1C(=O)c2cccc3cccc1c23 (stereo not given) ; Potency = inactive

Data point: O=C1c2cccc3cc([N+](=O)[O-])cc(c23)C(=O)N1CC1CCCO1 (stereo not given) ; Potency = inactive

Hello, the source for this data is ChEMBL document CHEMBL1201862, in case you need it.
